Target: Enoyl-[acyl-carrier-protein] reductase [NADH] FabI (Escherichia coli K-12, UniProt P0AEK4)
Sequence (P0AEK4 whole entry): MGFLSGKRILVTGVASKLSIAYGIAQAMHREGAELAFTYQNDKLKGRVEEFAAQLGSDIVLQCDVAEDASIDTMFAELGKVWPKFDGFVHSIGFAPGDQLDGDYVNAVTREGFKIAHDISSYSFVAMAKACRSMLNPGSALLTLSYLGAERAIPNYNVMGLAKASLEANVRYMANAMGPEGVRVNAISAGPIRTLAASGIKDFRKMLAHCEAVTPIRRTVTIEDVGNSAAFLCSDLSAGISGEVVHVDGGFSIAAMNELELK
Test: Antibacterial activity against Escherichia coli FabI
Hi! Could you tag entries with IC50 below 8 µM as YES, and those at or above as NO? Much appreciated.

Some solved cases for reference:
1) Nc1ccc(Cn2c3c(c4ccccc42)CCN(C(=O)c2ccc(O)cc2)C3)cc1 ... NO
2) COc1ccc(C(=O)N2CCc3c(n(Cc4ccc(O)cc4)c4ccccc34)C2)cc1 ... NO
3) CNc1ccc(C(=O)N2CCc3c(n(Cc4ccc(O)cc4)c4ccccc34)C2)cc1 ... NO
4) Cc1cc(C(=O)N2CCc3c(n(Cc4ccc(O)cc4)c4ccccc34)C2)ccc1O ... YES
5) O=C(c1ccc(Cl)cc1)N1CCc2c(n(Cc3ccc(O)cc3)c3ccccc23)C1 ... NO

Consider now this further molecule.
Given O=C(c1ccc(O)cc1)N1CCc2c(n(Cc3ccc(O)cc3)c3ccccc23)C1 , is recorded IC50 strictly lower than 8 µM?
YES

----------
Biological target: Enoyl-[acyl-carrier-protein] reductase [NADH] FabI (Escherichia coli K-12, UniProt P0AEK4)
Sequence (P0AEK4 whole entry): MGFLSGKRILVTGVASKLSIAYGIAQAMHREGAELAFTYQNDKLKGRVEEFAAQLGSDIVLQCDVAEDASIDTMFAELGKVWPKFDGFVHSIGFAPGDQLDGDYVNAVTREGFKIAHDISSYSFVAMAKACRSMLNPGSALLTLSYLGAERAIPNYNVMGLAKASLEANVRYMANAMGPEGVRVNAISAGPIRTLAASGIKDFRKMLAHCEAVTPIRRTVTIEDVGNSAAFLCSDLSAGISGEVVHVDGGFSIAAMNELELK
Assay: Antibacterial activity against Escherichia coli Enoyl-[acyl-carrier-protein] reductase was determined
PROPERTY LABEL: pIC50
Value format note: pIC50 is -log10 of concentration (mol/L); just state the number.

1. COC(=O)Cn1c2c(c3ccccc31)CCN(C(=O)c1ccc(O)cc1)C2 ... 4.46
2. COC(=O)CCCCn1c2c(c3ccccc31)CCN(C(=O)c1ccc(O)cc1)C2 ... 4.57
3. Cn1c2c(c3ccccc31)CCN(C(=O)c1ccc(O)cc1)C2 ... 4.96
4. O=C(c1ccc(O)cc1)N1CCc2c(n(Cc3cccc(O)c3)c3ccccc23)C1 ... 5.06
5. O=C(c1ccc(O)cc1)N1CCc2c(n(Cc3ccccc3)c3ccccc23)C1 ... 4.57

Here is the next item to consider.
Lab note: measured pIC50 of O=C(c1ccc(O)cc1)N1CCc2c([nH]c3ccccc23)C1 was 4.74

----------
Listed here are compounds together with their documented MIC.
Test system: Moraxella catarrhalis
Experiment: In vitro antibacterial activity against Moraxella catarrhalis 1502 FabI
Write down the numeric answer in mg/L and omit the unit.

Example cases with answers are listed next.
1) Oc1cc(Cl)ccc1Oc1ccc(Cl)cc1Cl ... 0.06
2) O=C(c1ccc(O)cc1)N1CCc2c(n(Cc3ccc(O)cc3)c3ccccc23)C1 ... 8
3) Cc1ccc(C(=O)N2CCc3c(n(Cc4ccc(O)cc4)c4ccccc34)C2)c(O)c1 ... 4
4) O=C(c1ccc(Cl)cc1O)N1CCc2c(n(Cc3ccc(O)cc3)c3ccccc23)C1 ... 2
5) O=C(c1ccc(O)c(Cl)c1)N1CCc2c(n(Cc3ccc(O)cc3)c3ccccc23)C1 ... 4

Lab note: measured MIC of O=C(c1ccccc1O)N1CCc2c(n(Cc3ccc(O)cc3)c3ccccc23)C1 was 8

Lab note: measured MIC of Cc1cc(C(=O)N2CCc3c(n(Cc4ccc(O)cc4)c4ccccc34)C2)ccc1O was 8

Values were extracted from ChEMBL document CHEMBL1133924.
